System: Histamine-induced skin vascular permeability in rats
Assay Notes: Histamine-induced skin vascular permeability in rats
Assay type: in vivo
Conditions: Rattus norvegicus, 4 h; Male Wistar rats, oral, dose of 3 mg/Kg, four hours after administration, compared with vehicle treated group
Some molecules, each annotated with its measured inhibition in vivo at 3 mg/kg.

Consider the worked cases shown below.
| Molecule | inhibition in vivo at 3 mg/kg |
| --- | --- |
| CCOCCn1cc(C2CCN(Cc3cccc(C(=O)O)c3)CC2)c2cccnc21 [Example 4] | > 50% |
| COc1ccc(CN2CCC(c3cn(Cc4ccc(Cl)s4)c4ncccc34)CC2)cc1C(=O)O [Example 19] | > 50% |
| CCCCn1cc(C2CCN(CCOc3cc(OC)ccc3C(=O)O)CC2)c2cccnc21 [Example 61] | > 50% |

// switching to the query molecule
Data request: Sample CCOCCn1cc(C2CCN(Cc3ccc(OC)c(C(=O)O)c3)CC2)c2cccnc21 [Example 5] — what was its inhibition in vivo at 3 mg/kg?
Data returned: > 50%
